Data provenance: paper PMC9750858

# measured.target: PYR1^DIAZI (Arabidopsis thaliana, UniProt O49686, A160V/E8G/F108Y/F159G/L87M/M158V/V81Y)
# Sequence (Q9CAJ0 179-511): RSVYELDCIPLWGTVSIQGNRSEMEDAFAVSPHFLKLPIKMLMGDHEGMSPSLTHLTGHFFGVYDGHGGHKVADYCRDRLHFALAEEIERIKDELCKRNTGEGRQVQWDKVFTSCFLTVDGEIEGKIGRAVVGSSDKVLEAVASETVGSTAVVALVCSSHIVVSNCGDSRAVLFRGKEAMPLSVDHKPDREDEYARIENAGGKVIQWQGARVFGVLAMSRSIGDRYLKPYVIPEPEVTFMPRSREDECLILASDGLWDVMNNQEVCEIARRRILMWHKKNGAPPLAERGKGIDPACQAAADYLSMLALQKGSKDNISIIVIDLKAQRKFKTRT
# Sequence (O49686 other isoform, or with tags, fused parts or gaps E8G/V81Y/L87M/F108Y/M158V/F159G/A160V): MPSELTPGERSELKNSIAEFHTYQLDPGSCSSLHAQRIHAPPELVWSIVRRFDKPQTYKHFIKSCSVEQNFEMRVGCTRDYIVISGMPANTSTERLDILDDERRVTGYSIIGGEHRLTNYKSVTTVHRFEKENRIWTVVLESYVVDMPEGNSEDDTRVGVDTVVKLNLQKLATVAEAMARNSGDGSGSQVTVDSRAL
# procedure.summary: Yeast transcriptional activation circuit Z4-PYR1/VP64-ΔN-HAB1, GFP reporter, PYR1^DIAZI
# test.settings: read-out: EC50, yeast transcription circuit; PYR1^DIAZI, off-target ligand
reported.metric: EC50 (nM)
The reply should contain only the number, in nM.

[in] Provide the reported EC50 (system: PYR1^DIAZI (Arabidopsis thaliana, UniProt O49686, A160V/E8G/F108Y/F159G/L87M/M158V/V81Y)) for "CCOP(=S)(OCC)SCn1nnc2ccccc2c1=O"
[out] 1100

* * *

# measured.target: PYR1^DIAZI / HAB1 (Arabidopsis thaliana, UniProt O49686, A160V/E8G/F108Y/F159G/L87M/M158V/V81Y)
# Sequence (O49686 with tags, fused parts or gaps E8G/V81Y/L87M/F108Y/M158V/F159G/A160V): as the sequence (O49686 other isoform, or with tags, fused parts or gaps E8G/V81Y/L87M/F108Y/M158V/F159G/A160V) above
# procedure.summary: Ligand/receptor-mediated PP2C (HAB1 phosphatase) inhibition, PYR1^DIAZI
reported.metric: pEC50
Remember the convention: pEC50 equals -log10 of concentration in molar.

[in] Annotate the compound CCOP(=S)(OCC)Oc1cc(C)nc(C(C)C)n1 [Diazinon, diazinon] with its measured pEC50.
[out] 7.44
